- target_under_test: FLK-1 receptor (Mus musculus, UniProt P35918)
- Construct: expressed in transfected cells; host or cells: NIH3T3C7#3 cells (FLK-1 infected NIH3T3)
- Sequence (P35918 20-1345): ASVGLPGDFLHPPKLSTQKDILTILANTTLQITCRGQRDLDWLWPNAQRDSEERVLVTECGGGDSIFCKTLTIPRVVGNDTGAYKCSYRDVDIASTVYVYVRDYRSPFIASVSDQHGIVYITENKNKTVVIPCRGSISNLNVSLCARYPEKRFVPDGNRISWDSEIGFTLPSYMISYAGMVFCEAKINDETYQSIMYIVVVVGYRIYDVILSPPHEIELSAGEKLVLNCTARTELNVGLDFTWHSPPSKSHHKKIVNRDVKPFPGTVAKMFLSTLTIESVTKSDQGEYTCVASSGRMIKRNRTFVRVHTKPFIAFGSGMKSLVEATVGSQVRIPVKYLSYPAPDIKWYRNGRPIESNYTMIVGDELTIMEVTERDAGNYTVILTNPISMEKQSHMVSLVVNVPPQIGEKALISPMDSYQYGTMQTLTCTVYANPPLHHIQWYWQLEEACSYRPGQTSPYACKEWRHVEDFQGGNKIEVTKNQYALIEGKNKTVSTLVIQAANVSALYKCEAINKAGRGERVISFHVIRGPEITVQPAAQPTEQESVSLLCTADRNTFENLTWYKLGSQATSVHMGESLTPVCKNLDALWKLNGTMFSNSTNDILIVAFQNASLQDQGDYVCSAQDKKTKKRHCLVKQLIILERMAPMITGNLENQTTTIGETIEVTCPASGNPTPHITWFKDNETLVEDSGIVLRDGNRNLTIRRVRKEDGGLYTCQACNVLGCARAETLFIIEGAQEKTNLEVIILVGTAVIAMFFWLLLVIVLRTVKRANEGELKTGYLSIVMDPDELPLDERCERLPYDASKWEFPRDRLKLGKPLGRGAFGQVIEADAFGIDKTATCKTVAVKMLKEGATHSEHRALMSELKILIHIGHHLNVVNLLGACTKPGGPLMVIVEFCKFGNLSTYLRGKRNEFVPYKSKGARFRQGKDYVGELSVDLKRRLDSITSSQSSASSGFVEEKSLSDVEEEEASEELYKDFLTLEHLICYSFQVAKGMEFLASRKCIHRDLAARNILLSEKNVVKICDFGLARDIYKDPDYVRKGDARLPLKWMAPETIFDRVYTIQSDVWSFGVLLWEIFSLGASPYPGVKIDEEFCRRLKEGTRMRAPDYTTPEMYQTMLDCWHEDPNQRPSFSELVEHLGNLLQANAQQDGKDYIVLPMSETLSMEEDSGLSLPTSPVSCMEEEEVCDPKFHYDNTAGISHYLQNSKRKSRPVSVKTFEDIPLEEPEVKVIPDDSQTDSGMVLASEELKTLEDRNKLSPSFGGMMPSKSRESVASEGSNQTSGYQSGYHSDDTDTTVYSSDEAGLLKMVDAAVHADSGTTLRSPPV
- procedure_summary: ELISA assay to measure kinase activity of FLK-1 receptor in FLK-1/NIH cells
- Format: cell-based, murine
- assay_conditions: FLK-1R ELISA, VEGF-stimulated FLK-1/NIH cells
- Procedure: ELISA Assay To Measure Kinase Activity Of FLK-1 Receptor In FLK-1/NIH Cells An ELISA assay was conducted to measure the kinase activity of the FLK-1 receptor and more specifically, the inhibition or activiation of protein tyrosine kinase activity on the FLK-1 receptor. k. NIH3T3C7#3 Cells (FLK-1 infected cells); Protocol. The following protocol was used to conduct the ELISA Assay: 1. […] 25. […] Remove bubbles with slow stream of air and read the ELISA plate in an ELISA plate reader at 410 nm.
pIC50: −log10 of the molar value.

{"smiles_notation": "N#C/C(=C\\c1ccc(O)c(O)c1)C(=O)NCCNC(=O)/C(C#N)=C/c1ccc(O)c(O)c1", "pIC50": 4.43}
{"smiles_notation": "N#C/C(=C\\c1cc(O)c(O)c(I)c1)C(=O)NCCCc1ccccc1", "pIC50": 5.31}
{"smiles_notation": "N#C/C(=C\\c1ccc(O)c(O)c1)S(=O)(=O)/C(C#N)=C/c1ccc(O)c(O)c1", "pIC50": 4.56}

Where these numbers come from: patent US5763441A
